# Tested on: MS2 coat protein
# protocol.notes: apparent KD of MS2 coat protein; designed switch direction (-1 OFF switch, 1 ON switch): -1; higher = weaker reporter binding
# applied.conditions: Eterna round: R95; input ligand: FMN 200 uM
Cut-off 40 nM on apparent KD of MS2 coat protein, inclusive. At or above means met; below means not met.

These recorded examples may help you get a feel for the data.
residue.sequence	group
GAUUAUGCGAGCUUUAGGGACAUGAGGAUCACCCAUGUUCGUCUUAUUAAUCUAGGUGCGCUAACAUACCUAAAUCU [JMF 47] (puzzle: Sensor v3, turn-off variant 1)	not met
CUUCACCCACCAGAGCUCACCCACAUACCAGCUCUGGUGACAUGAGGAUCACCCAUGUUUUUUGCCCGUCUUAUCUU [Intibima] (puzzle: Sensor v3, turn-off variant 2)	met
CGGUACUGAGGAUAUACAUGAGGAUCACCCAUGUGUACUAGCUAGCGUACUGGCAUUAGUAGAAGGCGGUGCUG [JL-ex3-3.20 Brourd mod] (puzzle: Exclusion 3)	not met
GAAGAGACAGGAUAUACAUGAGGAUCACCCAUGUGAGGAGGUUGGAGGCGGAGGAGGUGUAGAAGGGUCAAAGA [JR_Exclu3_Sub021] (puzzle: Exclusion 3)	met
CGUGACUCAGGAUAUGUAUAAUAUCACAUGAGGAUCACCCAUGUCCAGCGAAAGCUGGAAGCAGAAGGGAGUCACG [Fiskers Ex 5 - 39] (puzzle: Exclusion 5)	met

Could you tell me if the measured apparent KD of MS2 coat protein of AAUUUAACAUAGGAUAUCGAAUUUAUCAUUUAACGAGAAGGAUGAACAUGAGGAUCACCCAUGUGGUAUCAUGG [Mat - Exclusion 6 - JL Mod - D2] (puzzle: Exclusion 6) reaches 40 nM or more?
met

Let us now turn to CAUGAGGUAGGAUAUACGAUAAUAUAGGGUAGAUAUAUAACACAUGAGGAUCACCCAUGUAGAAGGACCAGUAC [Mat - Exclusion 2 - Mod of my Tesla design - D68] (puzzle: Exclusion 2)
met

Let us now turn to GGCCCUAGGGUCAGAUGCACAAGCUUUUUGCUCGUUUUAACAUGAGGAUCACCCAUGUCUAGUGGAUCUGAUCGGGU [Indiso] (puzzle: Sensor v3, turn-off variant 2)
not met

Let us now turn to AGAAAUGCCCAUGGCCACAAGCUCUUUGCUUGUCUUACUACAUGAGGAUCACCCAUGUAACAUGGGCUCCUGAUAAU [Been] (puzzle: Sensor v3, turn-off variant 2)
not met

Let us now turn to GGAAGAAUGAGUAGUCCUCAUUGAAGAGAAUAGUAAGAAACAUGAGGAUCACCCAUGUAAGAACAAGCUUUUGCUCA [JR_Sv3TOV2_Sub003] (puzzle: Sensor v3, turn-off variant 2)
met

---

# Tested on: K4 kissing-loop RNA reporter;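 further: bound reporter read as fluorescence of individual clusters on recovered sequencing chips by microscopy, with normalized cluster intensities fitted with a binding model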
# protocol.notes: apparent KD of K4 kissing-loop reporter; higher = weaker reporter binding
# applied.conditions: Eterna round: R107; input ligand: none
Below, each of the sequences is paired with its reported apparent KD of K4 kissing-loop reporter value.
Reply numerically in nM, unit not repeated.

Reference set (10 entries):
residue.sequence	assay.target	units.symbol	endpoint.value
GCAUAUACGAGAAGGAGCGUGCAUGACGAAUUAAUCAUCGACCUUAGUGAUGUUAAGGACGCACAGGUAGGUCGCUCGUGUAUGC [#04 K4 Arginine B Same State]	K4 kissing-loop RNA reporter	nM	347
AAUUAAUACAGAAGGAGCGUGAAAUUAUCUAUUUUUUUUUUAGCUAGUGAUGUUAGCAUUUCACAGGUAGGUCGCUGUAUAUUUA [JR_SSArginiB_Sub009]	K4 kissing-loop RNA reporter	nM	166
UGUCAUUGGUCGGCCGCCACUCCAUAAUGAGUGAUGUUCUAAAAGACGGAUCGAAAGAUCUGUCGGAGGACCGGGACCGAUGACU [FiskerMod 5 - Jieux - Same State - Tryptophan B]	K4 kissing-loop RNA reporter	nM	680
AGGUAUGUCUGAAGGAGCGACUAAGAAGCAGUGAUGUUGCUAAGUAGUAAGUAGCUACGUAGUCAGGUAGGUCGCAGAUAUACCU [Arg B SS t14]	K4 kissing-loop RNA reporter	nM	257
GUAUCGCUAGGAGGAUAUUUCGUUUUUCAUAGCAAUGGCUAUGCGGAGUGAUGUUCCGAUUUACCGAAAGAAGGCCUAGUGAUAC [FMN B 25]	K4 kissing-loop RNA reporter	nM	99.2
GCGGCCCAGCCGGAUACCAGUGACCCGCUGGGAACCGCGGGCCCAGAGUGAUGUUCGGGACACCCUUGGCAGCCGCCUGGGUCGC [#2 Same State - Theophylline B Attempt #18 (HarryS)]	K4 kissing-loop RNA reporter	nM	928
AAGCAGUCACUCGAAACCAUCGAAGAUGGUCGAGGACCGGUACGGCCGCCACUCGGAGUGAUGUUCCGAAGACUGCAAAAUAAAA [#SwitchBubble 10]	K4 kissing-loop RNA reporter	nM	286
AUGACAGAAUCGGCCGCCACUCAUUGUCCUGUGGACAUUCUAGGAUUAGUGAUGUUUUUCCCAUCGAGGACCGGGAUACAGAUUG [theeternabot_sameState_KL_Trp_B_6]	K4 kissing-loop RNA reporter	nM	467
UGUCAUUGGUCUGAUACCAGUUGAUAAACUGGAGUGAUGUUCCAAGACGAGAAACUCGACAACCCUUGGCAGCAGACCGAUGACU [TheoBS 16 #SwitchBubble 13 #StaticStem]	K4 kissing-loop RNA reporter	nM	374
GGGACGCUAGCUCGAAUGUAGUGAUUUGAUACCAGCCUGUCACUUGGCCCUUGGCAGCAAAGCAGAGUGAUGUUCUGACCAACCU [theeternabot_sameState_KL_Theo_A_47]	K4 kissing-loop RNA reporter	nM	235

Fill blank: measured apparent KD of K4 kissing-loop reporter of the sequence CCAUCGCUAUUCGAUACCAGCUACUUAGUGAUGUUAAGUUUUUAUCCACUGUAGGUGGAAAGCCCUUGGCAGCGAAUAGUGAUGG [Theophylline B K4 26] is ____.
474

Let us now turn to UUGAGCCGGACCCAAGUCCGGCUCUGCGAGCGAGGACCGGUACGGCCGCCACUCGGUGCAGUGAUGUUGCAUGGCCGCAAGGCCG [#2 Exclusion - Tryptophan A Attempt #7 (HarryS)]
377

Let us now turn to UGACUGGACUGAAGGAGCGAGCGAGACAAAGUCUCGAAAUCCUAGUGAUGUUAGGAAAUAACUCAGGUAGGUCGCAGUCUAGUCU [ArgBS 9 #SwitchBubble #StaticStem]
175

Let us now turn to AACUGCCAAGGAACAUUGUAAGAAGGUGAUACCAGCAUCGAAAGAUGCCCUUGGCAGCACCAACUUGCAGUGAUGUUGCAAGUAA [Design5]
165

Let us now turn to UGUCGUUCUAGUGAUGUUAGGACAGUUAUGAAGGAUAUACACACUCGUAGAAGGUCAGCUGCGGAAUGGCGAUUACGGUGAUUCG [theeternabot_sameState_KL_FMN_A_39]
128

Let us now turn to GGAUCCACCAGUGAUGUUGGAGAAAACUCUAAGGAUAUGACGAAAGUCAGAAGGUGGUAGACUGGGCAAAGUCCGGUCGGAUCCA [FmnA10 U30+G66]
378

Let us now turn to UGGUAUAGUGAUGUUAUACCACUACCAGAUACCAGUGUAACAUUACGCCCUUGGCAGCUGAUCAGGGAACAUAUGGAGACAUAUG [Theo A Mod astro A#6]
285

Let us now turn to UCGUCCGGAUUACUCGUGGUCAUGGUCGAUACCAGUAGAUUAAUCUACCCUUGGCAGCGACAUGAGUGAUGUUCAUGUGCAAUGA [KL-XTheo-A6 #analogue]
360

Let us now turn to ACCUUUUUUGCCAGUGAUGUUGGACAGGAAGGAGCGGGCAUAAGCCCAGGUAGGUCGCCUGUCAACUUUCUUAUAGCCCUAAGGU [KL-XArg-A17]
507

Let us now turn to CGAUUCAUGGCGGCCGCCACUCGCGAAGCUCCCGUUACGAUGUCCGCAACAGUGAUGUUGUUGCCGAGGACCGGGCCGAGAUCCA [theeternabot_exclusion_KL_Trp_B_31]
228

Let us now turn to `UGAUAGGACAGAAGGAGCGGUAGUGAUGUUGCCAAAAGGGUAAGGUGUCAAAAGACACCCUGCCAGGUAGGUCGCUGUCCUAUCU`
98.5

Let us now turn to UCGGGAGGCCGAAGGAGCGCCGCCAGUGAUGUUGGGAGUUAGAUACCAGUGAUGUUGGGCCGGCAGGUAGGUCGCGGCCGCGGAU [Exclusion Arginine B Gf 18]
147
